Listed next: entries and their corresponding Kd.
# target.or.system: T1, Cynomolgus TNFR2-His (Sino 90102-C08H) (cynomolgus monkey, UniProt A0A2K5VET2 132-366)
# T1 construct: Bought protein; also called cynomolgus monkey TNFR2; recombinant cynomolgus monkey TNFR2 protein; not shown: His tag
# T1 sequence: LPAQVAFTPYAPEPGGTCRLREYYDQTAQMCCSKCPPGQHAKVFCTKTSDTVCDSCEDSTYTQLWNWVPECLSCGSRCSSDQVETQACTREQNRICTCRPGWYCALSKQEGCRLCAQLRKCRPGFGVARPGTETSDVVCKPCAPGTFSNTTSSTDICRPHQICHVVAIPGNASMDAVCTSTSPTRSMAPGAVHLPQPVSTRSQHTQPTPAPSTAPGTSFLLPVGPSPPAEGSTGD
# procedure.summary: SPR (Biacore T200), antibody captured on Protein A chip
Expressed in nM, but write only the number.

binder	result.value
224-Hu6 (antibody, V domains shown, Humanized form of #224; also called VH8 + VL7) VH: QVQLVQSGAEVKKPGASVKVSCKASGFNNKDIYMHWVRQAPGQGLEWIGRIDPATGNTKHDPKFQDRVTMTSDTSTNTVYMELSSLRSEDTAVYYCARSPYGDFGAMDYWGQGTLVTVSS VL: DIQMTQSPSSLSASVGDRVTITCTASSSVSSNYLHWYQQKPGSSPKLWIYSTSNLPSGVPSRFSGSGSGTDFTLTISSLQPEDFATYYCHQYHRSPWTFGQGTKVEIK	2.63

// switching to the query binder
State, in one line, measured Kd of 001-Hu3 (antibody, V domains shown, Humanized form of #001; also called VH1 + VL3) VH: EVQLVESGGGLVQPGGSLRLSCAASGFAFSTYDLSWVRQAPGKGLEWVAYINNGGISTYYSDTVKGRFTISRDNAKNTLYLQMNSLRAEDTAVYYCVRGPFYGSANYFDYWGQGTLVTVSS VL: DIQMTQSPSSLSASVGDRVTITCRTSESIYSNLPWYQQKPGKAPKLLIYDATKLAEGVPSRFSGSGSGTDYTLTISSLQPEDFATYYCQHFWVTPWTFGQGTKVEIK
0.43
